Read-out: DNA damage-inducible transcript 3 (DDIT3), DDIT3 (gene 1649)
Assay: LTEA_HepaRG_DDIT3: Life Technologies and Expression Analysis (LTEA) Assay for DNA damage-inducible transcript 3 (DDIT3) using HepaRG (AID 2283488)
Settings: mRNA level, 48 h; actives raise or lower the signal
Activity calls are given as the source filed them. Rule for the calls: active = hit-call score of the fitted dose curve at least 0.9, where 1 is the maximum; inactive = score below 0.9.
Just give me one of these, please: true = active, false = inactive

Take a look at these entries with their results.
{"Compound": "NC=O", "Qualitative Label": "false"}
{"Compound": "O=C(O)CN(CC(=O)O)CC(=O)O", "Qualitative Label": "false"}
{"Compound": "COC(=O)CCC(=O)OC", "Qualitative Label": "false"}
{"Compound": "CC(=O)S[C@H](C(=O)N[C@H]1Cc2ccccc2[C@H]2CCC[C@@H](C(=O)O)N2C1=O)C(C)C", "Qualitative Label": "false"}
{"Compound": "CCCC(=O)O", "Qualitative Label": "false"}
{"Compound": "O=[Si]=O", "Qualitative Label": "false"}
{"Compound": "Nc1nc(Cl)nc2c1ncn2[C@H]1C[C@H](O)[C@@H](CO)O1", "Qualitative Label": "false"}
{"Compound": "Cc1cn([C@H]2C=C[C@@H](CO)O2)c(=O)[nH]c1=O", "Qualitative Label": "false"}

How did this test come out for CCCCOC(=O)CCCCC(=O)OCCCC ?
false

How did this test come out for CN(C)CCCN(C)CCCN(C)C ?
false

How did this test come out for Nc1nc(=S)c2[nH]cnc2[nH]1 ?
true

How did this test come out for COC(=O)CCCC(=O)OC ?
false

How did this test come out for O=C(O)c1cccnc1 ?
false

How did this test come out for CCCCC(CC)CO (stereo unspecified) ?
false

How did this test come out for OCC(CO)n1cnc(-c2ccc(F)cc2)c1-c1ccnc(Oc2ccccc2)n1 ?
false

How did this test come out for O=C(N[C@@H](c1ccccc1)[C@@H]1CCCCN1)c1cccc(C(F)(F)F)c1Cl ?
true

How did this test come out for CC(=O)OC1CC(C)OC(C)O1 (stereo unspecified) ?
false

How did this test come out for COc1ccc(C(=O)Nc2nc3ccccc3c(NCc3ccccc3)c2C#N)cc1 ?
false

How did this test come out for CC(C)(C)c1ccccc1 ?
false

How did this test come out for CC(C)OC(=O)C(C)(C)Oc1ccc(C(=O)c2ccc(Cl)cc2)cc1 ?
false

How did this test come out for CCCCC(CC)COC(=O)CCCCCCCC(=O)OCC(CC)CCCC (stereo unspecified) ?
false

---

Read-out: CD40, CD40 (gene 958)
Experiment: BSK_SAg_CD40: BioMAP Diversity Plus: SAg Assay for CD40 Biomarker Activity (AID 2283088)
Details: primary human HUVEC with PBMC; actives raise or lower the signal
Active and inactive are the calls of the source. Rule for the calls: active = hit-call score of the fitted dose curve at least 0.9, where 1 is the maximum; inactive = score below 0.9.
Just give me one of these, please: active, inactive

{"Molecule": "O=C1c2c(O)cccc2Cc2cccc(O)c21", "Qualitative Label": "inactive"}
{"Molecule": "CCCCC(CC)COC(=O)CCCCCCCC(=O)OCC(CC)CCCC (stereo not given)", "Qualitative Label": "inactive"}
{"Molecule": "O=C1OC(c2ccc(O)cc2)(c2ccc(O)cc2)c2ccccc21", "Qualitative Label": "active"}
{"Molecule": "CCCC[C@H]1CN(CC2CCOCC2)C(=O)OC12CCN(C1(C)CCN(C(=O)c3c(C)ncnc3C)CC1)CC2", "Qualitative Label": "inactive"}
{"Molecule": "NC=O", "Qualitative Label": "inactive"}
{"Molecule": "O=C1O[C@H]([C@H](O)CO)C(O)=C1O", "Qualitative Label": "inactive"}
{"Molecule": "Cn1cnc2c1c(=O)[nH]c(=O)n2C", "Qualitative Label": "inactive"}
{"Molecule": "CN(C)C(=O)NC1(c2ccccc2)CCN(CC[C@@]2(c3ccc(F)c(F)c3)CN(C(=O)c3ccccc3)CCO2)CC1", "Qualitative Label": "inactive"}

How did this test come out for COC(=O)[C@H]1[C@H]2C[C@@H]3c4[nH]c5cc(OC)ccc5c4CCN3C[C@H]2C[C@@H](OC(=O)c2cc(OC)c(OC)c(OC)c2)[C@@H]1OC ?
active

How did this test come out for CCCCOC(=O)CCCCC(=O)OCCCC ?
inactive

---

Assay: BSK_SAg_PBMCCytotoxicity: PBMC Cytotoxicity Assessment in the BioMAP Diversity Plus: SAg Assay (AID 2283093);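 note: PBMC viability measured as Alamar Blue reduction fluorescence at 546/580 nm; fitted both ways against DMSO so a hit may be loss or gain of signal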;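 for AC50: PBMC superantigen activated with SEB plus TSST-1 one hour after compound addition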
Details: primary human HUVEC with PBMC
The source made the active and inactive calls. How the source made its calls: active means hit-call score of the fitted dose curve at least 0.9, where 1 is the maximum; inactive means score below 0.9.
Reported Metric: AC50

{"Smiles Entry": "C=CCc1ccc(OC)c(OC)c1", "AC50": "inactive"}
{"Smiles Entry": "S=c1[nH]c2ccccc2s1", "AC50": "inactive"}
{"Smiles Entry": "CC(=O)OCC(COC(C)=O)OC(C)=O", "AC50": "inactive"}
{"Smiles Entry": "CS(=O)(=O)c1ccc([C@@H](C[C@H]2CCC(=O)C2)C(=O)Nc2cnccn2)cc1Cl", "AC50": "inactive"}
{"Smiles Entry": "CCCCCCC(C=O)=Cc1ccccc1", "AC50": "31 µM (active)"}
{"Smiles Entry": "OCC(CO)n1cnc(-c2ccc(F)cc2)c1-c1ccnc(Oc2ccccc2)n1", "AC50": "2.47 µM (active)"}

Working through the 5 compounds below one at a time, give AC50 for each.
1. Cc1cc(Cc2ccc(N)c(C)c2)ccc1N
2. CCN(CC)CCOc1ccc(C(=C(Cl)c2ccccc2)c2ccccc2)cc1
3. O=Cc1ccccc1C=O
4. CCCCCCCCCC[N+](C)(C)[O-]
5. O=C(NS(=O)(=O)/C=C/c1cccs1)c1ccc(F)cc1Br

1. inactive
2. 6.29 µM (active)
3. inactive
4. inactive
5. inactive

---

Test: APR_HepG2_MicrotubuleCSK_24hr: Apredica 24-hour HepG2 Assay for Microtubule CSK Stabilty (AID 2282909)
Details: HepG2 microtubule cytoskeleton imaging, actives raise or lower the signal
Active and inactive are the calls of the source. Rule for the calls: active = hit-call score of the fitted dose curve at least 0.9, where 1 is the maximum; inactive = score below 0.9.
Just give me one of these, please: Yes = active, No = inactive

Take a look at these entries with their results.
{"Smiles Entry": "Cc1cc(Cc2ccc(N)c(C)c2)ccc1N", "Qualitative Label": "No"}
{"Smiles Entry": "CC(=O)OCC(COC(C)=O)OC(C)=O", "Qualitative Label": "No"}
{"Smiles Entry": "CCCCCCCCCC[N+](C)(C)[O-]", "Qualitative Label": "No"}

How did this test come out for CC1(C)C(=O)NC(=O)N1CO ?
No

How did this test come out for O=C(N[C@@H](c1ccccc1)[C@@H]1CCCCN1)c1cccc(C(F)(F)F)c1Cl ?
Yes

How did this test come out for Cc1ccc(C(C)(C)C)c(O)c1 ?
Yes

How did this test come out for CCCC(=O)O ?
No

How did this test come out for Cc1cn([C@H]2C=C[C@@H](CO)O2)c(=O)[nH]c1=O ?
No

How did this test come out for C/C=C/C=C/C(=O)O ?
No

How did this test come out for CC(N)=O ?
No

---

Read-out: Glutamate-cysteine ligase regulatory (GCLM), GCLM (gene 2730)
Assay: LTEA_HepaRG_GCLM: Life Technologies and Expression Analysis (LTEA) Assay for Glutamate-cysteine ligase regulatory (GCLM) using HepaRG (AID 2283500)
Conditions: mRNA level, 48 h; actives raise or lower the signal
Calls of active or inactive are those of the source. How the source made its calls: active means hit-call score of the fitted dose curve at least 0.9, where 1 is the maximum; inactive means score below 0.9.
Just give me one of these, please: true (active), false (inactive)

{"Compound": "CCCCC(CC)COC(=O)CCCCCCCC(=O)OCC(CC)CCCC (configuration not stated)", "Qualitative Label": "false"}
{"Compound": "O=NO", "Qualitative Label": "false"}
{"Compound": "O=[Si]=O", "Qualitative Label": "false"}

How did this test come out for O=C1OC(c2ccc(O)cc2)(c2ccc(O)cc2)c2ccccc21 ?
false

How did this test come out for CCCCCCC(CCCCCCCCCCC(=O)OCC(COC(C)=O)OC(C)=O)OC(C)=O (configuration not stated) ?
false

How did this test come out for C=CCCCCCCCCCCCC ?
false

How did this test come out for O=C(O)c1[nH]n(-c2ccc(S(=O)(=O)O)cc2)c(=O)c1N=Nc1ccc(S(=O)(=O)O)cc1 ?
false

How did this test come out for COC(=O)CCC(=O)OC ?
false

How did this test come out for CO[C@@H]1COCC[C@@H]1N[C@@H]1CC[C@@](C(=O)N2CCc3ncc(C(F)(F)F)cc3C2)(C(C)C)C1 ?
false

How did this test come out for CCCCCCCCCC[N+](C)(C)[O-] ?
false

How did this test come out for CN(C)CCCN1c2ccccc2Sc2ccc(Cl)cc21 ?
false

How did this test come out for c1ccc2occc2c1 ?
false

How did this test come out for CN(C)CCCN(C)CCCN(C)C ?
false

How did this test come out for Nc1nc(=S)c2[nH]cnc2[nH]1 ?
false

How did this test come out for Cc1cn([C@H]2C=C[C@@H](CO)O2)c(=O)[nH]c1=O ?
false

How did this test come out for Oc1ccc(O)cc1 ?
false

How did this test come out for O=C1NC(=O)C(c2ccccc2)(c2ccccc2)N1 ?
false

How did this test come out for OCC(CO)n1cnc(-c2ccc(F)cc2)c1-c1ccnc(Oc2ccccc2)n1 ?
false

How did this test come out for Cc1ccc(-c2cc(C(F)(F)F)nn2-c2ccc(S(N)(=O)=O)cc2)cc1 ?
false

How did this test come out for CCCCC(CC)CO (configuration not stated) ?
false
